assay.procedure: log P by HPLC on reversed-phase column (EEC Directive 79/831 Annex V.A8), acidic range
Assay type: physicochemical
condition.parameters: reversed-phase C18 HPLC column; HPLC reversed-phase C18, 55° C., pH 2.7, 0.1% aqueous formic acid and acetonitrile; read-out: log P (HCOOH)
measured.parameter: chromatographic logP

Solved cases (2 shown):
> print(dat)
                                   compound    measured.parameter  reported.value
1  Cn1c(-c2nc3n(c2Br)CCC(C)(C)C3)nc2cc(C(F)(F)F)ncc21 [Example V-003]  chromatographic logP            3.03
2  CCS(=O)(=O)c1c(-c2nc3cc(C(F)(F)F)ncc3n2C)nc2n1CCCC2F (stereo not drawn) [Example I-026]  chromatographic logP            2.11

A. CCS(=O)(=O)c1c(-c2nc3cc(C(F)(F)F)ncc3n2C)nc2n1CCCC2C (stereo not drawn) [Example I-043]
B. CC1CCn2c(nc(-c3nc4cc(C(F)(F)C(F)(F)F)ncc4n3C)c2Br)C1 (stereo not drawn) [Example V-002]
Ask: Lab note: check whether A or B has the lower measured chromatographic logP. Could you answer with the label of the item you picked?
Reply: A
